Data origin: patent EP4759807A1

Below, each of the compounds is paired with its reported Dmax value.
# Experimental target: IRAK4 (Homo sapiens)
# Run description: Hibit fluorescence detection of proteolysis (IRAK4-HiBiT in HEK293T cells)
# Type: cell-based
# Set-up: host or cells: HEK293T (ATCC)
# Measurement setup: HEK-293T

{"Compound": "Cn1c(=O)n(C2CCC(=O)NC2=O)c2cccc(CN3CC4(CCC(CN[C@H]5CC[C@H](n6cc(-n7cc(-c8ccc9cc(C(N)=O)cnn89)nn7)c(C(F)F)n6)CC5)CC4)C3)c21 (some centres unmarked) [Example 60]", "Experimental target": "IRAK4 (Homo sapiens)", "Dmax": "> 80%"}
{"Compound": "Cn1c(=O)n(C2CCC(=O)NC2=O)c2cccc(NC[C@H]3CC[C@@H](N(C)C[C@H]4CC[C@H](n5cc(-n6cc(-c7cnn8ccc(N9CCOCC9)nc78)nn6)c(C(F)F)n5)CC4)CC3)c21 (some centres unmarked) [Example 21]", "Experimental target": "IRAK4 (Homo sapiens)", "Dmax": "< 60%"}
{"Compound": "Cn1c(=O)n(C2CCC(=O)NC2=O)c2cccc(NCC3CC4(CCN(C[C@H]5CC[C@H](n6cc(-n7cc(-c8cnn9ccc(N%10CCOCC%10)nc89)nn7)c(C(F)F)n6)CC5)CC4)C3)c21 (some centres unmarked) [Example 9]", "Experimental target": "IRAK4 (Homo sapiens)", "Dmax": "< 60%"}
{"Compound": "CN(CC1CCN(CCC#Cc2cccc3c2n(C)c(=O)n3C2CCC(=O)NC2=O)CC1)C[C@H]1CC[C@H](n2cc(-n3cc(-c4cnn5ccc(N6CCOCC6)nc45)nn3)c(C(F)F)n2)CC1 (some centres unmarked) [Example 25]", "Experimental target": "IRAK4 (Homo sapiens)", "Dmax": "< 60%"}
{"Compound": "Cn1c(=O)n(C2CCC(=O)NC2=O)c2cccc(N3CCN(C[C@H]4CC[C@H](n5cc(-n6cc(-c7cnn8ccc(N[C@@H]9CCCC[C@@H]9O)nc78)nn6)c(C(F)F)n5)CC4)CC3)c21 (some centres unmarked) [Example 268]", "Experimental target": "IRAK4 (Homo sapiens)", "Dmax": "70 to 80%"}

====

# Experimental target: IRAK4 (Homo sapiens, UniProt Q9NWZ3)
# Sequence (Q9NWZ3 1-460): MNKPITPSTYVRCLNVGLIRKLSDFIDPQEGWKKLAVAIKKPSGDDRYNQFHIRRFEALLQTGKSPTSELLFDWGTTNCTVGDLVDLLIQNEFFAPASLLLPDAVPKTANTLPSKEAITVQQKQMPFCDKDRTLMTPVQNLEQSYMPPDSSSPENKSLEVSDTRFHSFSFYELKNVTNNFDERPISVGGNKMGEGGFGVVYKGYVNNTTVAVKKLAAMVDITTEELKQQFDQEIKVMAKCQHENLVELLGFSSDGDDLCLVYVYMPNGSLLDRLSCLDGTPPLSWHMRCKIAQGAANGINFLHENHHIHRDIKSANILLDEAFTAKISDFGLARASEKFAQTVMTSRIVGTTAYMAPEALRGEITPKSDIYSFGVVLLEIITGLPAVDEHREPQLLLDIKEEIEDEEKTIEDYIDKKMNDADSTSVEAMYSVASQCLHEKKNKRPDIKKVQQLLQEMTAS
# Run description: Hibit fluorescence detection of proteolysis (IRAK4-HiBiT in HEK293T cells)
# Assay type: cell-based
# Set-up: host or cells: HEK293T (ATCC)
# Measurement setup: HEK-293T
Dmax values by entry
Test readout: Dmax

{"Molecule": "CN1CCN(c2ccn3ncc(-c4cn(-c5cn([C@H]6CC[C@H](CN7CCC8(CCN(c9cccc%10c9n(C)c(=O)n%10C9CCC(=O)NC9=O)CC8)C7)CC6)nc5C(F)F)nn4)c3n2)CC1 (some centres unmarked)", "Result": "> 80%"}
{"Molecule": "Cn1c(=O)n(C2CCC(=O)NC2=O)c2cccc(N3CCC(N4CCN(C[C@H]5CC[C@H](n6cc(-n7cc(-c8cnn9ccc(N[C@H]%10CCCC[C@H]%10O)nc89)nn7)c(C(F)F)n6)CC5)CC4)CC3)c21 (some centres unmarked)", "Result": "> 80%"}
{"Molecule": "Cn1c(=O)n(C2CCC(=O)NC2=O)c2cccc(N3CCC(N4CCN(C[C@H]5CC[C@H](n6cc(-n7cc(-c8ccc9cc(C(N)=O)cnn89)nn7)c(C(F)F)n6)CC5)CC4)CC3)c21 (some centres unmarked)", "Result": "> 80%"}
{"Molecule": "Cn1c(=O)n(C2CCC(=O)NC2=O)c2cccc(CN3CCC4(CC3)CN(C[C@H]3CC[C@H](n5cc(-n6cc(-c7cnn8ccc(N9CCOCC9)nc78)nn6)c(C(F)F)n5)CC3)C4)c21 (some centres unmarked)", "Result": "< 60%"}
{"Molecule": "Cn1c(=O)n(C2CCC(=O)NC2=O)c2cccc(N3CCC4(CCN(C[C@H]5CC[C@H](n6cc(-n7cc(-c8cnn9ccc(N%10CCC(O)CC%10)nc89)nn7)c(C(F)F)n6)CC5)CC4)CC3)c21 (some centres unmarked)", "Result": "> 80%"}

====

# Experimental target: IRAK4 (Homo sapiens)
# Run description: Hibit fluorescence detection of proteolysis (IRAK4-HiBiT in HEK293T cells)
# Assay type: cell-based
# Set-up: host or cells: HEK293T (ATCC)
# Measurement setup: HEK-293T
The entries below come with measured Dmax values attached.

{"Compound": "Cn1c(=O)n(C2CCC(=O)NC2=O)c2cccc(NCCC3CC4(C3)CN(C[C@H]3CC[C@H](n5cc(-n6cc(-c7cnn8ccc(N9CCOCC9)nc78)nn6)c(C(F)F)n5)CC3)C4)c21 (stereo partly drawn)", "Dmax": "70 to 80%"}
{"Compound": "C[C@@H]1CN(C[C@H]2CC[C@H](n3cc(-n4cc(-c5ccc6cc(C(N)=O)cnn56)nn4)c(C(F)F)n3)CC2)CCN1c1cccc2c1n(C)c(=O)n2C1CCC(=O)NC1=O (stereo partly drawn)", "Dmax": "> 80%"}
{"Compound": "Cn1c(=O)n(C2CCC(=O)NC2=O)c2cccc(N3CCC(N4CCN(C[C@H]5CC[C@H](n6cc(-n7cc(-c8cnn9ccc(N[C@@H]%10CCCC[C@@H]%10O)nc89)nn7)c(C(F)F)n6)CC5)CC4)CC3)c21 (stereo partly drawn)", "Dmax": "> 80%"}

====

# Experimental target: UniProtKB Q9NWZ3
# Run description: Hibit fluorescence detection of proteolysis (IRAK4-HiBiT in HEK293T cells)
# Assay type: cell-based
# Set-up: host or cells: HEK293T (ATCC)
# Measurement setup: HEK-293T
Dmax reference

{"Molecule": "C[C@H]1COCCN1c1ccn2ncc(-c3cn(-c4cn([C@H]5CC[C@H](CN6CCN(C7CCN(c8cccc9c8n(C)c(=O)n9C8CCC(=O)NC8=O)CC7)CC6)CC5)nc4C(F)F)nn3)c2n1 (stereo partly drawn) [Example 59]", "Experimental target": "UniProtKB Q9NWZ3", "Dmax": "70 to 80%"}
{"Molecule": "Cn1c(=O)n(C2CCC(=O)NC2=O)c2cccc(CN3CC4(CCN(C[C@H]5CC[C@H](n6cc(-n7cc(-c8cnn9ccc(N%10CCOCC%10)nc89)nn7)c(C(F)F)n6)CC5)CC4)C3)c21 (stereo partly drawn) [Example 13]", "Experimental target": "UniProtKB Q9NWZ3", "Dmax": "> 80%"}
{"Molecule": "Cn1c(=O)n(C2CCC(=O)NC2=O)c2cccc(C3CCN(C[C@H]4CC[C@H](n5cc(-n6cc(-c7cnn8ccc(N9CCOCC9)nc78)nn6)c(C(F)F)n5)CC4)CC3)c21 (stereo partly drawn) [Example 11]", "Experimental target": "UniProtKB Q9NWZ3", "Dmax": "> 80%"}

====

# DC50 values compiled below
# Experimental target: IRAK4 (Homo sapiens)
# Run description: Hibit fluorescence detection of proteolysis (IRAK4-HiBiT in HEK293T cells)
# Assay type: cell-based
# Set-up: host or cells: HEK293T (ATCC)
# Measurement setup: IRAK4-HiBiT, HEK293T cells, 24 h
Test readout: DC50

{"Molecule": "Cn1c(=O)n(C2CCC(=O)NC2=O)c2cccc(C#CCOC3CCN(C[C@H]4CC[C@H](n5cc(-n6cc(-n7ccc8cc(C(N)=O)cnc87)nn6)c(C(F)F)n5)CC4)CC3)c21 (stereo partly drawn) [Example 106]", "Result": "< 0.5 nM"}
{"Molecule": "Cn1c(=O)n(C2CCC(=O)NC2=O)c2cccc(N3CCC4(CCN(C[C@H]5CC[C@H](n6cc(-n7cc(-c8cnn9ccc(N[C@@H]%10CCCC[C@@H]%10O)nc89)nn7)c(C(F)F)n6)CC5)CC4)C3)c21 (stereo partly drawn) [Example 152]", "Result": "< 0.5 nM"}
{"Molecule": "Cn1c(=O)n(C2CCC(=O)NC2=O)c2cccc(N3CCOC4(CCN(C[C@H]5CC[C@H](n6cc(-n7cc(-c8cnn9ccc(N%10CCOCC%10)nc89)nn7)c(C(F)F)n6)CC5)CC4)C3)c21 (stereo partly drawn) [Example 38]", "Result": "< 0.5 nM"}
